target or system: UniProt:P29597
Sequence (P29597 whole entry): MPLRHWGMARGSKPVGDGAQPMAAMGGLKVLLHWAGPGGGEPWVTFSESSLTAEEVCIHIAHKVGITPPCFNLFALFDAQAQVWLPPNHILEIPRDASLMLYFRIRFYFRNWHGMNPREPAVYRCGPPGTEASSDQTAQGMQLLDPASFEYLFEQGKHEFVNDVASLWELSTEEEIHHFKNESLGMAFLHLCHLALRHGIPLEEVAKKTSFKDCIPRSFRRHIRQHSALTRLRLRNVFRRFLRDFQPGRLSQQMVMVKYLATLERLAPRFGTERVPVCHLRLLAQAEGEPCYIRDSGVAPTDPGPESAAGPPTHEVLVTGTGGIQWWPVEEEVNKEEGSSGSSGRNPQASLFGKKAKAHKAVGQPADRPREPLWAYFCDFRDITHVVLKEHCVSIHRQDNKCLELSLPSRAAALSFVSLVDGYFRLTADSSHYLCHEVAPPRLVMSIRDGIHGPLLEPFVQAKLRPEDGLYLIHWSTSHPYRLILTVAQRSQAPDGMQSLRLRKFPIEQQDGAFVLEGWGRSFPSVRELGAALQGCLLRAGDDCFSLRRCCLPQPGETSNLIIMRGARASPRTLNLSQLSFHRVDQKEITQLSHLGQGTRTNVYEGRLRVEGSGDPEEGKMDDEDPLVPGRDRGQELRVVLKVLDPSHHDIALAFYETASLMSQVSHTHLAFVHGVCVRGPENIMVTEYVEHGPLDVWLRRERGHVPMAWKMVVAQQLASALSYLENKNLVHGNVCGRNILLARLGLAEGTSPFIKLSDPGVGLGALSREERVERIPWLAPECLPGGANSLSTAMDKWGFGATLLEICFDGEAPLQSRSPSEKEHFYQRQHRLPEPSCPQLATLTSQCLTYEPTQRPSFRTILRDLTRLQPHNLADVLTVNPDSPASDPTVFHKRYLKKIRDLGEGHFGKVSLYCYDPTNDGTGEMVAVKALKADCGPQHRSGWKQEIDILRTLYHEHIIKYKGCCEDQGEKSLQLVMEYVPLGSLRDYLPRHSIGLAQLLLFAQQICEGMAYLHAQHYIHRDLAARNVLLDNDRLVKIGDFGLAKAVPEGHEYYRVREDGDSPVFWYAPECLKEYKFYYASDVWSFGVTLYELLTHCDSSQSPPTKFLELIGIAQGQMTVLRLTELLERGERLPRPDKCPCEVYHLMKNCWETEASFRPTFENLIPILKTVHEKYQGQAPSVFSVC
experimental readout: Ki

Answered cases to consult:
N#Cc1cccc(F)c1-c1cc(-n2ccc(N3CC[C@@H](C#N)[C@H](O)C3)n2)c2c(n1)CNC2=O
0.1 to 10 nM
CO[C@@H]1CN(c2ccn(-c3cc(-c4c(F)cccc4C#N)nc4c3C(=O)NC4)n2)CC[C@H]1O
0.1 to 10 nM

q: Report Ki for N#Cc1cccc(F)c1-c1cc(-n2ccc(N3CCC4(C3)OCCO4)n2)c2c(n1)CNC2=O tested on UniProt:P29597.
a: 0.009 to 0.1 nM

q: Return Ki measured with UniProt:P29597 given this compound: N#Cc1cccc(F)c1-c1cc(-n2ccc(N3CCOC[C@@H](O)C3)n2)c2c(n1)CNC2=O
a: 0.1 to 10 nM

q: Please provide the recorded Ki for CS(=O)(=O)c1ccn(-c2cc(-c3c(F)cccc3C#N)nc3c2C(=O)NC3)n1 , tested on UniProt:P29597.
a: 10 to 100 nM

q: State its Ki on UniProt:P29597: CCNC(=O)Cc1ccn(-c2cc(-c3c(F)cccc3C#N)nc3c2C(=O)NC3)n1
a: 0.1 to 10 nM

q: Requested read-out Ki, target or system UniProt:P29597, entry C[C@H]1CC[C@@H](O)CN1c1ccn(-c2cc(-c3c(F)cccc3C#N)nc3c2C(=O)NC3)n1
a: 0.1 to 10 nM

q: Short answer please: Ki, UniProt:P29597, entry C[C@H]1[C@H](O)CCN1c1ccn(-c2cc(-c3c(F)cccc3C#N)nc3c2C(=O)NC3)n1
a: 0.009 to 0.1 nM
